Assay: qHTS assay to identify aromatase inhibitors - cell viability counter screen (AID 743084);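 note: cells stimulated with testosterone during compound exposure; nearly all actives have a fitted effect of over 55% in size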
Conditions: MCF-7 aro ERE viability, CellTiter-Fluor, 24 h; series mostly up to 70.3 µM
Inconclusive results are not listed. Calls of active or inactive are those of the source. Calls come from the whole dose curve; as a rule, active = well fitted cell-killing curve with a large enough effect in the repeat runs; inconclusive = weak or mixed curves, or effect the other way; inactive = no such curve, though single readings can be large or run the other way.
Output constraint: value belongs to active, inactive

Below are worked cases with known answers.
CCC(=O)O[C@H]1[C@H](O[C@@H]2[C@@H](C)[C@H](O[C@H]3C[C@@](C)(OC)[C@@H](O)[C@H](C)O3)[C@@H](C)C(=O)O[C@H](CC)[C@@](C)(O)[C@H](O)[C@@H](C)C(=O)[C@H](C)C[C@@]2(C)O)O[C@H](C)C[C@@H]1N(C)C :: active
Cc1ccc2c(c1)C(=O)OC2=O :: inactive
C=CC(=O)OCCCC :: inactive
CC(=O)Oc1c(C)c(C)c2c(c1C)CC[C@@](C)(CCC[C@H](C)CCC[C@H](C)CCCC(C)C)O2 :: inactive

Task: Recorded test outcome, item CN(Cc1cnc2nc(N)nc(N)c2n1)c1ccc(C(=O)N[C@@H](CCC(=O)O)C(=O)O)cc1
Output: inactive

Task: // next record NC[C@H](O)c1ccc(O)c(O)c1
Output: inactive

---

Test: Caspase-3/7 induction in CHO-K1 cells by small molecules, qHTS cell viability counter screen (AID 1346979); note: nearly all actives have a fitted effect of over 35% in size
Settings: CellTiter-Fluor fluorescence, 17 h; series mostly up to 92.4 µM
Results filed as inconclusive are left out. Calls of active or inactive are those of the source. Calls come from the whole dose curve; as a rule, active = well fitted cell-killing curve with a large enough effect in the repeat runs; inconclusive = weak or mixed curves, or effect the other way; inactive = no such curve, though single readings can be large or run the other way.
Output constraint: value belongs to active, inactive

Below are worked cases with known answers.
C[N+](C)(C)CCO :: inactive
c1ccc2ncccc2c1 :: inactive
CN(C)C :: inactive
CCOC(=O)C(C)Oc1ccc(Oc2cnc3cc(Cl)ccc3n2)cc1 (stereo not drawn) :: inactive
CCCCCCCCCCC(CO)CCCCCCCC (stereo not drawn) :: inactive
C=CN1CCCC1=O :: inactive
ClC/C=C/CCl :: inactive
c1ccc2cc3ccccc3cc2c1 :: inactive

--- query ---
Task: Recorded test outcome, item CCc1cccc2c3c([nH]c12)C(CC)(CC(=O)O)OCC3 (stereo not drawn)
Output: inactive

---

Experiment: qHTS assay to identify small molecule antagonists of the peroxisome proliferator-activated receptor delta (PPARd) signaling pathway - cell viability counter screen (AID 743213); note: nearly all actives have a fitted effect of over 50% in size
Settings: PPARd-bla HEK293H viability, CellTiter-Glo luminescence, 17 h; series mostly up to 62 µM
Inconclusive results are not listed. Active and inactive are the calls of the source. Calls come from the whole dose curve; as a rule, active = well fitted cell-killing curve with a large enough effect in the repeat runs; inconclusive = weak or mixed curves; inactive = no such curve, though single readings can be large or run the other way.
Output constraint: value belongs to active, inactive

Below are worked cases with known answers.
CC/C(=C(/CC)c1ccc(O)cc1)c1ccc(O)cc1 :: active
IC(I)I :: inactive

--- query ---
Task: Recorded test outcome, item CC(C)=CCO
Output: inactive

---

Test: qHTS assay to identify small molecule antagonists of the retinoid-related orphan receptor gamma (ROR-gamma) signaling pathway - cell viability counter screen (AID 1159520); note: nearly all actives have a fitted effect of over 50% in size
Settings: Tet-on RORgamma CHO cells viability, ATP luminescence, 16 h; series mostly up to 92.4 µM
Description: U.S. Tox21 Program National Center for Advancing Translational Sciences [NCATS] NIH Chemical Genomics Center [NCGC] U.S. Environmental Protection Agency [EPA] National Institutes of Environmental Health Sciences [NIEHS] National Toxicology Program [NTP] U.S. Food and Drug Administration [FDA] […] Reporter gene activity was induced using Doxycycline Hyclate and measured after 16 hr incubation. […]
Records with an inconclusive call do not appear. Activity calls are given as the source filed them. Calls come from the whole dose curve; as a rule, active = well fitted cell-killing curve with a large enough effect in the repeat runs; inconclusive = weak or mixed curves, or effect the other way; inactive = no such curve, though single readings can be large or run the other way.
Readout: outcome

Below, each entry is followed by its recorded outcome result.
c1ccc2c(c1)ccc1cc3c(ccc4ccccc43)cc12 :: inactive
CN(Cc1cnc2nc(N)nc(N)c2n1)c1ccc(C(=O)N[C@@H](CCC(=O)O)C(=O)O)cc1 :: inactive
c1ccc2cc3ccccc3cc2c1 :: inactive
IC(I)I :: inactive
C=CCOC(=O)C(=C)C :: inactive

Task: Item CC1(C)NC(=O)N(c2ccc([N+](=O)[O-])c(C(F)(F)F)c2)C1=O has what recorded outcome?
Output: inactive

Task: // next record O=C(O)c1ccc(O)cc1
Output: inactive

Task: // next record CCC(=O)O[C@H]1[C@H](O[C@@H]2[C@@H](C)[C@H](O[C@H]3C[C@@](C)(OC)[C@@H](O)[C@H](C)O3)[C@@H](C)C(=O)O[C@H](CC)[C@@](C)(O)[C@H](O)[C@@H](C)C(=O)[C@H](C)C[C@@]2(C)O)O[C@H](C)C[C@@H]1N(C)C
Output: inactive

Task: // next record COc1ccc2nc(N)sc2c1
Output: inactive

Task: // next record CCCCCCOCCOCCO
Output: inactive

Task: // next record CC(=O)O[C@]1(C(C)=O)CC[C@H]2[C@@H]3C=C(Cl)C4=CC(=O)CC[C@]4(C)[C@H]3CC[C@@]21C
Output: inactive

Origin of values: PubChem BioAssay (Tox21)
